All figures here come from PubChem BioAssay (NCI).

ASSAY METHOD TEXT: NCI Yeast Anticancer Drug Screen. Data for the bub3 strain (AID 167)
MEASUREMENT CONDITIONS: S. cerevisiae bub3 mutant strain, at 11.0 µM, stronger effect = higher value
The panel holds about 79,000 compounds, 15% with a hit somewhere; the sample as a whole holds those more often.
Binary classification by growth inhibition, with 20% as an inclusive lower bound for satisfied; all other cases are not satisfied.

Check if growth inhibition >= 20% (inclusive). Item: CCCC/C=C1\CCC(CN2CCCC2)C1=O (configuration not stated)
satisfied

Check if growth inhibition >= 20% (inclusive). Item: `CN(C)CCNCCCNc1c2ccccc2nc2cccc([N+](=O)[O-])c12`
not satisfied

Check if growth inhibition >= 20% (inclusive). Item: `O=C(O)c1c2ccc(Cl)cc2nc2[nH]c(=O)[nH]c(=O)c12`
not satisfied

Check if growth inhibition >= 20% (inclusive). Item: `CC(=O)N1C=Cc2c(c(C)c3c([nH]c4ccccc43)c2C)C1`
satisfied

Check if growth inhibition >= 20% (inclusive). Item: CN1C(=O)C(CC(=O)O)NC1=S (configuration not stated)
not satisfied

Check if growth inhibition >= 20% (inclusive). Item: `CC1(C2CC2)C(C#N)(C#N)C1(C#N)C#N`
not satisfied

Check if growth inhibition >= 20% (inclusive). Item: `COc1cc(NCCCCNCC(C)(C)C)c2ncccc2c1`
not satisfied

Check if growth inhibition >= 20% (inclusive). Item: `OB(O)c1ccccc1C#Cc1ccccc1`
satisfied

Check if growth inhibition >= 20% (inclusive). Item: COC(=O)C1CCCCC1C(=O)Nc1ccccc1 (configuration not stated)
not satisfied

Check if growth inhibition >= 20% (inclusive). Item: `O=C1c2ccccc2C(=O)c2sc(Nc3ccccc3Cl)nc21`
satisfied

Check if growth inhibition >= 20% (inclusive). Item: O=C1NC(c2cccc(OCc3ccccc3)c2)Nc2ccccc21 (configuration not stated)
not satisfied

Check if growth inhibition >= 20% (inclusive). Item: COc1ccc(C(C)c2cc3c(cc2OCC(C)=O)OCO3)cc1 (configuration not stated)
not satisfied
